Molecular target: Epidermal growth factor receptor [DEL746-750,C797S] (Homo sapiens, UniProt P00533, C797S/DEL746-750)
Sequence (P00533 with tags, fused parts or gaps C797S/DEL746-750 limits assumed): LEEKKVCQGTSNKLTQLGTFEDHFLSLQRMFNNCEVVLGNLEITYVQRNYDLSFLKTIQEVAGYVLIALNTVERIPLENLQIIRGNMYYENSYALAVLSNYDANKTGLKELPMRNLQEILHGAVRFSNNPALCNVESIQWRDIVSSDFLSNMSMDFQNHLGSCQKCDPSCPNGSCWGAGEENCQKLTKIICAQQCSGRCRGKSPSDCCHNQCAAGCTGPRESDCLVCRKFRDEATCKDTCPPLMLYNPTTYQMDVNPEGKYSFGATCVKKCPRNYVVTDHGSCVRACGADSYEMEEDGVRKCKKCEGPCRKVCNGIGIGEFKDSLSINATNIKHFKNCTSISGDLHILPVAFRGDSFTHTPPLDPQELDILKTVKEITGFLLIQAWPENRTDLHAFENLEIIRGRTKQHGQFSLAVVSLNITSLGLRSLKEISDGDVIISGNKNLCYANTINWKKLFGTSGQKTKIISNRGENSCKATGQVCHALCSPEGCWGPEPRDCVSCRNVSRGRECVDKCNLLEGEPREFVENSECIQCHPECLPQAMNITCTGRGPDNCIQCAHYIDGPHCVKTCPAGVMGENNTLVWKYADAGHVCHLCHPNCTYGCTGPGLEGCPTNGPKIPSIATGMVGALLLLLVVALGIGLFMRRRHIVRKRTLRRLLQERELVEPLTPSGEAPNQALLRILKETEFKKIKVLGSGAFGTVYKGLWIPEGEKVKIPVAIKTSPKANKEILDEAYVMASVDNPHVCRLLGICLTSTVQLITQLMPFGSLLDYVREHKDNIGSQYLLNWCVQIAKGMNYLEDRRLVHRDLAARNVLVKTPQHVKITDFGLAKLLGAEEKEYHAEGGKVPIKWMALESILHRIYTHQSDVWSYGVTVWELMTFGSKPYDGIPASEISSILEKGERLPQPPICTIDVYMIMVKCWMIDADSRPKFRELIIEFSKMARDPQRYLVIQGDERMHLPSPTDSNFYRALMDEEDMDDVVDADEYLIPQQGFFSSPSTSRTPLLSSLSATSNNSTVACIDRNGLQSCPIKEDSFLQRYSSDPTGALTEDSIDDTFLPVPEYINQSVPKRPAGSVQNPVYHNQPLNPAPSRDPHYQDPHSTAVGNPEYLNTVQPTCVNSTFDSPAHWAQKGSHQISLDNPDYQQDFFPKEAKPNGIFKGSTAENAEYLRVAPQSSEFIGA
Experiment: Biochemical Assay Against EGFR Exon 19 Deletion/C797S Protein (EGFR d19/CS)
measuredQuantity: IC50 (nM)

Some solved cases for reference:
smiles: Fc1ccc(-c2nn(CCOC(F)(F)F)cc2-c2ncnc3oc(-c4ccccc4)cc23)cc1
IC50, nM: 2.41
//
smiles: O=S1(=O)CC(n2cc(-c3ncnc4oc(C5=CCN(S(=O)(=O)C6CC6)CC5)cc34)c(-c3ccc(F)cc3)n2)C1
IC50, nM: 0.42

(P) Fc1ccc(-c2nn(CCC(F)F)cc2-c2ccnc3oc(-c4ccccc4)cc23)cc1
(Q) O=S1(=O)CCC(n2cc(-c3ncnc4oc(-c5ccccc5)cc34)c(-c3ccc(F)cc3)n2)CC1
Of P and Q , which shows the smaller IC50 value? Reply with the label of the item you choose. P
